Value source: paper PMC9911399

- TARGET_ENTITY: T1, RBFOX1 RRM RbFoxmut (Fox-RRM*) (Homo sapiens, UniProt Q9NWB1 109-208, R118D;E147R;N151S;E152T)
- T1 sequence: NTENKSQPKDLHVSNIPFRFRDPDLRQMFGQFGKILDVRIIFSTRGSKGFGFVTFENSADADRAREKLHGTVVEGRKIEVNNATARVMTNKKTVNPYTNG
- PROTOCOL_SUMMARY: EMSA; HiTS-Eq, 1 nM pool, 10 min; buffer printed only for the single-RNA assays: 10 mM Tris pH 7.5, 150 mM NaCl, 3.4 mM EDTA, 0.001% NP-40, 30 C
- RUN_CONDITIONS: tags: His6 N-terminal (pET28a); label: 5' 32P
Over roughly 16,000 sequences, “ka relative to ugcaugu” has its median near 0.096; the highest 2% begin near 0.35. This is one part of a sample in which the highest values are shown more often than they occur.
READOUT_KIND: binding signal

Answered cases to consult:
| BINDER | REPORTED_MEASUREMENT |
| --- | --- |
| ACGCCAA (DNA:RNA) RNA: GGGAGACCGGAAUUCAGAUUGUCCACGCCAAUUAAAUCCCGUCGUAGCCACCA DNA 1: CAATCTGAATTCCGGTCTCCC DNA 2: TGGTGGCTACGACGGGATT | 0.0795 KA relative to UGCAUGU |
| UGGCUAC (DNA:RNA) RNA: GGGAGACCGGAAUUCAGAUUGUCCUGGCUACUUAAAUCCCGUCGUAGCCACCA DNA 1: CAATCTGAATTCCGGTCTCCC DNA 2: TGGTGGCTACGACGGGATT | 0.0987 KA relative to UGCAUGU |
| AGCAAGC (DNA:RNA) RNA: GGGAGACCGGAAUUCAGAUUGUCCAGCAAGCUUAAAUCCCGUCGUAGCCACCA DNA 1: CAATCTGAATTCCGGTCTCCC DNA 2: TGGTGGCTACGACGGGATT | 0.0622 KA relative to UGCAUGU |

Request: Would you mind telling me what binding signal value was observed for GUGCAUA (DNA:RNA) RNA: GGGAGACCGGAAUUCAGAUUGUCCGUGCAUAUUAAAUCCCGUCGUAGCCACCA DNA 1: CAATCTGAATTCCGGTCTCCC DNA 2: TGGTGGCTACGACGGGATT ?
Response: 0.153 KA relative to UGCAUGU
